target-of-assay: human JAK1 (a.a. 837-1142) (Homo sapiens)
The following compounds are shown together with reported IC50 values.
parameter-measured: IC50

- compound: "N#CCC1(n2cc(-c3ncnc4[nH]ccc34)cn2)CN(C2CCN(C(=O)Nc3cccc(Cl)c3)CC2)C1 [Example 183]"
  target-of-assay: "human JAK1 (a.a. 837-1142) (Homo sapiens)"
  assay-value: "≤ 5 nM"
- compound: "N#CCC1(n2cc(-c3ncnc4[nH]ccc34)cn2)CN(C2CCN(C(=O)Nc3cccc(Cl)c3F)CC2)C1 [Example 177]"
  target-of-assay: "human JAK1 (a.a. 837-1142) (Homo sapiens)"
  assay-value: "≤ 5 nM"
- compound: "N#CCC1(n2cc(-c3ncnc4[nH]ccc34)cn2)CN(C2CCN(C(=O)c3ccc(-c4nc5ccccc5o4)c(F)c3)CC2)C1 [Example 137]"
  target-of-assay: "human JAK1 (a.a. 837-1142) (Homo sapiens)"
  assay-value: "20 to 30 nM"
- compound: "COc1ccccc1NC(=O)N1CCC(N2CC(CC#N)(n3cc(-c4ncnc5[nH]ccc45)cn3)C2)CC1 [Example 180]"
  target-of-assay: "human JAK1 (a.a. 837-1142) (Homo sapiens)"
  assay-value: "≤ 5 nM"
- compound: "CC1CC(N2CC(CC#N)(n3cc(-c4ncnc5[nH]ccc45)cn3)C2)CCN1C(=O)c1cccc(F)c1 (single isomer, unassigned) [Example 150]"
  target-of-assay: "human JAK1 (a.a. 837-1142) (Homo sapiens)"
  assay-value: "≤ 5 nM"
- compound: "COC(=O)c1cc(F)ccc1NC(=O)N1CCC(N2CC(CC#N)(n3cc(-c4ncnc5[nH]ccc45)cn3)C2)CC1 [Example 207]"
  target-of-assay: "human JAK1 (a.a. 837-1142) (Homo sapiens)"
  assay-value: "≤ 5 nM"
- compound: "N#CCC1(n2cc(-c3ncnc4[nH]ccc34)cn2)CN(C2CC3CCC(C2)N3C(=O)C2CCCC2)C1 (centres unmarked) [Example 145]"
  target-of-assay: "human JAK1 (a.a. 837-1142) (Homo sapiens)"
  assay-value: "5 to 20 nM"
- compound: "N#CCC1(n2cc(-c3ncnc4[nH]ccc34)cn2)CN(C2CCN(C(=O)c3cc(C(F)(F)F)ncc3Cl)CC2)C1 [Example 342]"
  target-of-assay: "human JAK1 (a.a. 837-1142) (Homo sapiens)"
  assay-value: "≤ 5 nM"
- compound: "N#CCC1(n2cc(-c3ncnc4[nH]ccc34)cn2)CN(C2CCN(Cc3cccc(Cl)c3Cl)CC2)C1 [Example 219]"
  target-of-assay: "human JAK1 (a.a. 837-1142) (Homo sapiens)"
  assay-value: "5 to 20 nM"
- compound: "COc1ccsc1C(=O)N1CCC(N2CC(CC#N)(n3cc(-c4ncnc5[nH]ccc45)cn3)C2)CC1 [Example 81]"
  target-of-assay: "human JAK1 (a.a. 837-1142) (Homo sapiens)"
  assay-value: "≤ 5 nM"
- compound: "N#CCC1(n2cc(-c3ncnc4[nH]ccc34)cn2)CN(C2CCN(C(=O)c3cc(F)cc(Cl)c3)CC2)C1 [Example 28]"
  target-of-assay: "human JAK1 (a.a. 837-1142) (Homo sapiens)"
  assay-value: "≤ 5 nM"
- compound: "N#CCC1(n2cc(-c3ncnc4[nH]ccc34)cn2)CN(C2CCN(C(=O)Nc3ncccc3C(F)(F)F)CC2)C1 [Example 201]"
  target-of-assay: "human JAK1 (a.a. 837-1142) (Homo sapiens)"
  assay-value: "5 to 20 nM"
- compound: "N#CCC1(n2cc(-c3ncnc4[nH]ccc34)cn2)CN(C2CCN(C(=O)c3cc(F)cc(Br)c3)CC2)C1 [Example 29]"
  target-of-assay: "human JAK1 (a.a. 837-1142) (Homo sapiens)"
  assay-value: "≤ 5 nM"
- compound: "N#CCC1(n2cc(-c3ncnc4[nH]ccc34)cn2)CN(C2CCN(C(=O)c3ccc(-c4ccc5nccn5c4)c(F)c3)CC2)C1 [Example 135]"
  target-of-assay: "human JAK1 (a.a. 837-1142) (Homo sapiens)"
  assay-value: "≤ 5 nM"
